The measured values listed here are drawn from paper PMC6014687.

Experiment: in vivo
Settings: female, BALB/c, mouse, iv, 5 mg/kg, Cmax
quantityName: Cmax (µM)
# unit: µM | format: bare number

**Q:** Specify Cmax for `Cc1ccc(NC(=O)c2ccc3c(c2)OCCO3)cc1NC(=O)c1ccc2nc(OCCN3CCCC3)ccc2c1` and stop.
**A:** 3.83

====

Experiment: in vivo
Conditions: female, Ncr-Foxn1nu (athymic), mouse, po, 20 mg/kg, Cmax
quantityName: Cmax (nM)
The answer is to be given in nM; state only the numeric part.

**Q:** For the molecule `Cc1ccc(NC(=O)c2ccc3c(c2)OCCO3)cc1NC(=O)c1ccc2nc(OCCN3CCCC3)ccc2c1` , give its reported Cmax.
**A:** 439

====

Assay: in vivo
Conditions: female, BALB/c, mouse, po, 5 mg/kg, Cmax
quantityName: Cmax
Hi, when you answer, please include the unit after the number. Thanks!

**Q:** Please report Cmax for the following compound: Cc1ccc(NC(=O)c2ccc3c(c2)OCCO3)cc1NC(=O)c1ccc2nc(OCCN3CCCC3)ccc2c1 [Compound 26]
**A:** 828 nM

====

Assay: physchem
Conditions: pH 7.4
quantityName: chromatographic logD

**Q:** Output measured chromatographic logD for this item: `Cc1ccc(NC(=O)c2ccc3c(c2)OCCO3)cc1NC(=O)c1ccc2nc(OCCN3CCCC3)ccc2c1`
**A:** 2.1

====

Assay: in vivo
Settings: female, BALB/c, mouse, 5 mg/kg
quantityName: half-life at 24 h (h)
Give just the numeric value; h need not be written.

**Q:** Fill in half-life at 24 h for record Cc1ccc(NC(=O)c2ccc3c(c2)OCCO3)cc1NC(=O)c1ccc2nc(OCCN3CCCC3)ccc2c1 [Compound 26]
**A:** 5.3

====

Test: in vivo
Settings: female, Ncr-Foxn1nu (athymic), mouse, po, 20 mg/kg, AUClast
quantityName: AUC(0-t) (µM·h)
Respond with the bare value in µM·h.

**Q:** Identify the reported AUC(0-t) for the following entry. `Cc1ccc(NC(=O)c2ccc3c(c2)OCCO3)cc1NC(=O)c1ccc2nc(OCCN3CCCC3)ccc2c1`
**A:** 1.53

====

Experiment: in vivo
Settings: female, Ncr-Foxn1nu (athymic), mouse, po, 20 mg/kg, AUCinf
quantityName: AUC(0-inf) (µM·h)
Response body: numeric value in µM·h, unit text excluded.

**Q:** Identify measured AUC(0-inf) associated with `Cc1ccc(NC(=O)c2ccc3c(c2)OCCO3)cc1NC(=O)c1ccc2nc(OCCN3CCCC3)ccc2c1`
**A:** 1.58

====

Assay: in vivo
Conditions: female, BALB/c, mouse, po, 5 mg/kg, AUC0–24h PO
quantityName: AUC(0-t) at 24 h (µM·h)
Only the number, expressed in µM·h, is required.

**Q:** Tell us which AUC(0-t) at 24 h value is on record for Cc1ccc(NC(=O)c2ccc3c(c2)OCCO3)cc1NC(=O)c1ccc2nc(OCCN3CCCC3)ccc2c1 [Compound 26]
**A:** 5.8

====

Experiment: in vivo
Details: female, BALB/c, mouse, iv, 5 mg/kg, Vss
quantityName: Vd at 24 h (L/kg)
Kindly provide the numeric value in L/kg only, without the unit symbol.

**Q:** Look up Vd at 24 h of Cc1ccc(NC(=O)c2ccc3c(c2)OCCO3)cc1NC(=O)c1ccc2nc(OCCN3CCCC3)ccc2c1 [Compound 26] and report it.
**A:** 4.2
